Origin of the recorded values: patent US7323485B2

The compounds listed here are annotated with their log10 of EC50.
# assayTarget: alpha2C adrenergic receptors (Homo sapiens, UniProt P18825)
# Sequence (P18825 whole entry): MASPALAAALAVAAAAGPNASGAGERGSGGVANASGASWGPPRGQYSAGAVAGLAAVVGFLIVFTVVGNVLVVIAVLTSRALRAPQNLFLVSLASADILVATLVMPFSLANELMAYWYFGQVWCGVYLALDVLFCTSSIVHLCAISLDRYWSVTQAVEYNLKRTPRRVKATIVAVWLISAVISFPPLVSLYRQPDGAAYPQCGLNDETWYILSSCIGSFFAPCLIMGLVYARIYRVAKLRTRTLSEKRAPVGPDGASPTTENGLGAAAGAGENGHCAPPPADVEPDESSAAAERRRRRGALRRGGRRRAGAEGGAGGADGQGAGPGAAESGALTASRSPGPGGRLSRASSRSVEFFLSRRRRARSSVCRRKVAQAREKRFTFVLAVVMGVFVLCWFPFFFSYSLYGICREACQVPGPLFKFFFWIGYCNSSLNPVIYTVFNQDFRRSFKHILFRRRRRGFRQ
# assayRemarks: Receptor Selection and Amplification Technology (RSAT) assay, alpha2C
# measurementConditions: NA = not active at concentrations less than 10 micromolar, read-out: Alpha 2C EC50
readoutType: log10 of EC50 (log10 of the value in nM)

compound="O=C1C2=C(CCC1Cc1c[nH]c(=S)[nH]1)NCCC2 (stereo not shown)" assaytarget="alpha2C adrenergic receptors (Homo sapiens, UniProt P18825)" obsvalue=3.35
compound="S=c1[nH]cc(CC2CCC3=C2CCC3)[nH]1 (stereo not shown) [drawing 15]" assaytarget="alpha2C adrenergic receptors (Homo sapiens, UniProt P18825)" obsvalue=2.04
compound="CC1CC(Cc2c[nH]c(=S)[nH]2)c2ccccc21 (stereo not shown)" assaytarget="alpha2C adrenergic receptors (Homo sapiens, UniProt P18825)" obsvalue=3.01
compound="Fc1ccc(C2=C(C3CC3)CCC2Cc2c[nH]c(=S)[nH]2)cc1 (stereo not shown)" assaytarget="alpha2C adrenergic receptors (Homo sapiens, UniProt P18825)" obsvalue=0.95
compound="S=c1[nH]cc(C2Cc3cccc(Br)c3C2)[nH]1 (stereo not shown)" assaytarget="alpha2C adrenergic receptors (Homo sapiens, UniProt P18825)" obsvalue=2.03
compound="CCCC1=C(c2ccc(F)cc2)C(Cc2c[nH]c(=S)[nH]2)CC1 (stereo not shown)" assaytarget="alpha2C adrenergic receptors (Homo sapiens, UniProt P18825)" obsvalue=1.76
compound="N#Cc1ccc(C2=CCCC2Cc2c[nH]c(=S)[nH]2)cc1 (stereo not shown)" assaytarget="alpha2C adrenergic receptors (Homo sapiens, UniProt P18825)" obsvalue=2.19
compound="CCC1=C(c2ccc(F)cc2)C(Cc2c[nH]c(=S)[nH]2)CC1 (stereo not shown)" assaytarget="alpha2C adrenergic receptors (Homo sapiens, UniProt P18825)" obsvalue=1.60
compound="Fc1cc2c(cc1F)C(Cc1c[nH]c(=S)[nH]1)CC2 (stereo not shown)" assaytarget="alpha2C adrenergic receptors (Homo sapiens, UniProt P18825)" obsvalue=2.82
compound="O=C1c2c(CO)cccc2CCC1Cc1c[nH]c(=S)[nH]1 (stereo not shown)" assaytarget="alpha2C adrenergic receptors (Homo sapiens, UniProt P18825)" obsvalue=2.49
compound="CC1=C(c2ccc(C#N)cc2)C(Cc2c[nH]c(=S)[nH]2)CC1 (stereo not shown)" assaytarget="alpha2C adrenergic receptors (Homo sapiens, UniProt P18825)" obsvalue=1.61
compound="O=[N+]([O-])c1cccc(C2=CCCC2Cc2c[nH]c(=S)[nH]2)c1 (stereo not shown)" assaytarget="alpha2C adrenergic receptors (Homo sapiens, UniProt P18825)" obsvalue=3.40
compound="S=c1[nH]cc(CC2CCC3=C2CCCC3)[nH]1 (stereo not shown)" assaytarget="alpha2C adrenergic receptors (Homo sapiens, UniProt P18825)" obsvalue=2.78
compound="Fc1ccccc1C1=CCCC1Cc1c[nH]c(=S)[nH]1 (stereo not shown)" assaytarget="alpha2C adrenergic receptors (Homo sapiens, UniProt P18825)" obsvalue=3.00
compound="CC1=C(c2cc(F)cc(F)c2)C(Cc2c[nH]c(=S)[nH]2)CC1 (stereo not shown)" assaytarget="alpha2C adrenergic receptors (Homo sapiens, UniProt P18825)" obsvalue=1.67
compound="Fc1ccc2c(c1)CCC2Cc1c[nH]c(=S)[nH]1 (stereo not shown)" assaytarget="alpha2C adrenergic receptors (Homo sapiens, UniProt P18825)" obsvalue=3.05
compound="CC1=C(Br)C(Cc2c[nH]c(=S)[nH]2)CC1 (stereo not shown)" assaytarget="alpha2C adrenergic receptors (Homo sapiens, UniProt P18825)" obsvalue=2.14
compound=Fc1ccc(C2=CCC[C@@H]2Cc2c[nH]c(=S)[nH]2)cc1 assaytarget="alpha2C adrenergic receptors (Homo sapiens, UniProt P18825)" obsvalue=2.12
compound="S=c1[nH]cc(C2Cc3cccc(Cl)c3C2)[nH]1 (stereo not shown)" assaytarget="alpha2C adrenergic receptors (Homo sapiens, UniProt P18825)" obsvalue=1.65
compound="Cc1cccc2c1CCC2Cc1c[nH]c(=S)[nH]1 (stereo not shown)" assaytarget="alpha2C adrenergic receptors (Homo sapiens, UniProt P18825)" obsvalue=2.97
compound=S=c1[nH]cc(C[C@H]2CCc3ccccc32)[nH]1 assaytarget="alpha2C adrenergic receptors (Homo sapiens, UniProt P18825)" obsvalue=1.81
compound="CC1=C(c2ccc(F)cc2)C(Cc2c[nH]c(=S)[nH]2)CCC1 (stereo not shown)" assaytarget="alpha2C adrenergic receptors (Homo sapiens, UniProt P18825)" obsvalue=1.54
compound="Fc1ccc(C2=CCCC2Cc2c[nH]c(=S)[nH]2)cc1F (stereo not shown)" assaytarget="alpha2C adrenergic receptors (Homo sapiens, UniProt P18825)" obsvalue=2.31
compound="Cc1cccc2c1CC(c1c[nH]c(=S)[nH]1)C2 (stereo not shown)" assaytarget="alpha2C adrenergic receptors (Homo sapiens, UniProt P18825)" obsvalue=1.11
compound="CC1=CCCCC1Cc1c[nH]c(=S)[nH]1 (stereo not shown)" assaytarget="alpha2C adrenergic receptors (Homo sapiens, UniProt P18825)" obsvalue=2.83
compound=Fc1ccc(C2=CCC[C@H]2Cc2c[nH]c(=S)[nH]2)cc1 assaytarget="alpha2C adrenergic receptors (Homo sapiens, UniProt P18825)" obsvalue=2.85
compound="S=c1[nH]cc(CC2CCc3c(Br)cccc32)[nH]1 (stereo not shown)" assaytarget="alpha2C adrenergic receptors (Homo sapiens, UniProt P18825)" obsvalue=2.23
compound=Fc1cc(F)cc(C2=CCC[C@@H]2Cc2c[nH]c(=S)[nH]2)c1 assaytarget="alpha2C adrenergic receptors (Homo sapiens, UniProt P18825)" obsvalue=2.76
compound="CCC1=CCCCC1Cc1c[nH]c(=S)[nH]1 (stereo not shown)" assaytarget="alpha2C adrenergic receptors (Homo sapiens, UniProt P18825)" obsvalue=2.52
compound="Fc1ccc(F)c(C2=CCCC2Cc2c[nH]c(=S)[nH]2)c1 (stereo not shown)" assaytarget="alpha2C adrenergic receptors (Homo sapiens, UniProt P18825)" obsvalue=2.63
compound="S=c1[nH]cc(CC2CCc3ccccc32)[nH]1 (stereo not shown) [drawing 16]" assaytarget="alpha2C adrenergic receptors (Homo sapiens, UniProt P18825)" obsvalue=2.26
compound="S=c1[nH]cc(C2Cc3ccc(Cl)c(Cl)c3C2)[nH]1 (stereo not shown)" assaytarget="alpha2C adrenergic receptors (Homo sapiens, UniProt P18825)" obsvalue=2.28
compound="S=c1[nH]cc(CC2CCCc3cccnc32)[nH]1 (stereo not shown)" assaytarget="alpha2C adrenergic receptors (Homo sapiens, UniProt P18825)" obsvalue=3.45
